# Test system: JNK2;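 further: KINOMEscan kinase panel screen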
# Construct: gene MAPK9
# experimental parameters: concentration: 1 μM, replicates: in singlicate; n = 1
readout label: %Inh (%)
Numbers only, in %.

For every record below, what is its %Inh?
1. Nc1n[nH]c2nnc(-c3ccccc3)cc12
2. CS(=O)(=O)CCNCc1ccc(-c2ccc3ncnc(Nc4ccc(OCc5ccccc5)c(Cl)c4)c3c2)o1.Cl
3. CC(C)(C)c1ccc(-n2cnc3c(N)ncnc32)cc1

5
4
3

For every record below, what is its %Inh?
1. Clc1ccc(-c2cc(-c3c[nH]nc3-c3ccccn3)ccn2)cc1
2. NC(=O)c1sc(-n2cnc3ccccc32)cc1OCc1ccccc1F

1. 30
2. 28
